// reported log10 of IC50 for each item listed
- TARGET OR TEST SYSTEM: human GluN1/GluN2B NMDA receptors (Homo sapiens, UniProt Q05586+Q13224)
- Sequence (Q13224 27-1484, other chains not shown): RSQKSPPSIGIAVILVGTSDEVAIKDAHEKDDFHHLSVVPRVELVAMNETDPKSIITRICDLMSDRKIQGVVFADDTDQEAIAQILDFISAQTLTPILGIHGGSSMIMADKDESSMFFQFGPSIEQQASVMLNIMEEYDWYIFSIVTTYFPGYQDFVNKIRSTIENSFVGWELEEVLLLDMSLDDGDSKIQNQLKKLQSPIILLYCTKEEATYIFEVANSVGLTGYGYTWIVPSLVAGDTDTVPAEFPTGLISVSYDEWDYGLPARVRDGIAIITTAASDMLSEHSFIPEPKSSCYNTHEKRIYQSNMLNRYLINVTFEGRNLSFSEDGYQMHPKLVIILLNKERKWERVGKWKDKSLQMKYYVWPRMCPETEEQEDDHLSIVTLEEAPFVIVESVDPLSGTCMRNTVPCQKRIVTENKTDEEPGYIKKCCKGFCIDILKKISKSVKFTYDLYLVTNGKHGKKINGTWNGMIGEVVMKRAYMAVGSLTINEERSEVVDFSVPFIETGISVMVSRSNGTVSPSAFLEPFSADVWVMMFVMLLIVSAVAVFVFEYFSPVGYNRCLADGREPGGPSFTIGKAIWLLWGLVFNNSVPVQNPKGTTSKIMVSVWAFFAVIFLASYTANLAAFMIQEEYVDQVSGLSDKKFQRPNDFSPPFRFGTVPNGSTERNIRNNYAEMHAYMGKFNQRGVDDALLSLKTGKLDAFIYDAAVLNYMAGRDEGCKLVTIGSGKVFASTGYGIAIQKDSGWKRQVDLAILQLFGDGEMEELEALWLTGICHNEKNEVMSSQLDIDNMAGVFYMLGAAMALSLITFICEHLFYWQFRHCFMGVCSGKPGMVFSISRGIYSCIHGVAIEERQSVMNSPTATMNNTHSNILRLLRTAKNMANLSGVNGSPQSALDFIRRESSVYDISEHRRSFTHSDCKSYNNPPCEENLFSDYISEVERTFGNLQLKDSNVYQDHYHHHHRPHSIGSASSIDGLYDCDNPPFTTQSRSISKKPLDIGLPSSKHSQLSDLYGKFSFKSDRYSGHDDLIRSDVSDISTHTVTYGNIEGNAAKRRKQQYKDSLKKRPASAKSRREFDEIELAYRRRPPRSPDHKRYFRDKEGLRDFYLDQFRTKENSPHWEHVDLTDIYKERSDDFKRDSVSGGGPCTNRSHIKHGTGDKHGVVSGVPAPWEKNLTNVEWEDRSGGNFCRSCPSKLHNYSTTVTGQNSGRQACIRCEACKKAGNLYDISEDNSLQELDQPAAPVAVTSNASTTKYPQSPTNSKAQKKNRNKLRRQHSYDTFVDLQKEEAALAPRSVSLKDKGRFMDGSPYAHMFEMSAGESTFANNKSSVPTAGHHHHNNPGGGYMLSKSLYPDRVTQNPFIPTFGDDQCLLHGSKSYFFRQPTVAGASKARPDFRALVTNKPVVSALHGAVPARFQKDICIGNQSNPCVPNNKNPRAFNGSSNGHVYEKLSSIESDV
- METHOD NOTES: Cell-based calcium flux (FLIPR) assay on cloned human NR1/NR2B ion channels expressed in mammalian cells
- STUDY CONDITIONS: standard assay; glutamate at ~EC80; FLIPR calcium flux
REPORTED PROPERTY: log10 of IC50 (log10 of the value in µM)

{"columns": ["RECORD SMILES", "READING"],
 "data": [
  ["Cc1cc(-n2cc(COc3ncc(C4CC4)cn3)nn2)c(F)cc1F", -0.37],
  ["CC(F)(F)c1cc(-n2cc(COc3ncc(C(F)F)cn3)nn2)ccc1F", -1.85],
  ["Cc1ccc(OCc2cn(-c3ccc(F)c(C(C)(F)F)c3)nn2)nc1", -0.90],
  ["COc1cnc(OCc2cn(-c3ccc(C(F)(F)F)s3)nn2)nc1", -2.40],
  ["Cc1cnc(OCc2cn(-c3cc(F)ccc3F)nn2)nc1", 1.02],
  ["Fc1ccc(-n2cc(COc3cccc(C(F)(F)F)n3)nn2)cc1OC(F)F", -0.04],
  ["CC(F)(F)c1cc(-n2cc(COc3ncc(C4CC4)cn3)nn2)ccc1F", -1.39],
  ["Fc1ccc(-n2cc(COc3ncc(N4CCOCC4)cn3)nn2)cc1C(F)(F)F", -0.30]
]}
